Biological target: CDK4/Cyclin D1 (Homo sapiens)
Sequence (P11802 whole entry): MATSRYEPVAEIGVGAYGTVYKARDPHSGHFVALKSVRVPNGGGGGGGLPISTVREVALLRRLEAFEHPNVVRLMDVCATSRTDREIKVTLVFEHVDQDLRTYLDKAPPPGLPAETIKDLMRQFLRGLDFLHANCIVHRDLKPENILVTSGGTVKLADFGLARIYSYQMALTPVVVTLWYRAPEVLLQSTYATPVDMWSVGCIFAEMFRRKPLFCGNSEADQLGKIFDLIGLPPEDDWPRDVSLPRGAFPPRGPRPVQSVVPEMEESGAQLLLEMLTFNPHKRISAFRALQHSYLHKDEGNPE
Sequence (P24385 whole entry partner): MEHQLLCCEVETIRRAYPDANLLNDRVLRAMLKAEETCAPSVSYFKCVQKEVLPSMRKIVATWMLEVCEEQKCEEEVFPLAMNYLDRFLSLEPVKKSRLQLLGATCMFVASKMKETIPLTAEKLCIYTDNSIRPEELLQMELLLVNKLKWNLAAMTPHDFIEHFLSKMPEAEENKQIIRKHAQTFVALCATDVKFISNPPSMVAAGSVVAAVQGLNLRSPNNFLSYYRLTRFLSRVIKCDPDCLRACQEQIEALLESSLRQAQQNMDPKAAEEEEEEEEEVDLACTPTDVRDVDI
Experiment: NanoBRET live-cell target engagement, NanoLuc-CDK4/Cyclin D1 in HEK-293
Type: binding
Details: CDK4/D1; experiment 1; read-out: Inhibition at 10µM (%)
reported_property: inhibition at 10 µM

Please review the entries below; each comes with its answer.
CN1CC[C@H](c2c(O)cc(O)c3c(=O)cc(-c4ccccc4Cl)oc23)[C@H](O)C1	88.6%
COC1CN(C(=O)c2ccc3c(N)ncc(-c4ccc(-c5cnn(C)c5)cc4)c3n2)C1	11.6%
COc1ccccc1-c1cc(Nc2cccc(CS(N)(=O)=O)c2)ncn1	41.2%
Cn1cc(-c2ccc(-c3cncc(Cl)c3N3CCC4(CCNC4=O)CC3)cc2)cn1	-6.1%
CNC(=O)c1nn(C)c2c1C(C)(C)Cc1cnc(Nc3ccc(N4CCN(C)CC4)cc3)nc1-2	98.8%
N#CCNC(=O)c1ccc(-c2ccnc(Nc3ccc(N4CCOCC4)cc3)n2)cc1	53.4%
CN1CCN(Cc2ccc(NC(=O)Nc3ccc(Oc4ccnc(N)n4)cc3)cc2C(F)(F)F)CC1	79.9%
CC(C)(C)c1nc(-c2cccc(NS(=O)(=O)c3c(F)cccc3F)c2F)c(-c2ccnc(N)n2)s1	5.4%
COc1ccc(F)cc1-c1cc(NC(=O)C2CCCNC2)ncc1Cl (stereo not drawn)	81.2%
CC(C)N1CCN(c2ccc(Nc3ncc4cc5n(c4n3)C3(CCCCC3)CNC5=O)nc2)CC1	96.8%

**Query** Fill in the blank: the reported inhibition at 10 µM of CN1CCN(c2ccc(Nc3ncc4cc(C#N)c(=O)n(C5CCCC5)c4n3)cc2)CC1 is ____.
**Result** 95.8%

**Query** Now consider CC(C)c1cnn2c(NCc3ccccc3)cc(NC[C@H]3CCNC[C@@H]3O)nc12 and answer again.
**Result** 42.3%

* * *

The entries below come with measured Inhibition at 10µM (%) Replicate 2 values attached.
Target: CDK8/Cyclin C (Homo sapiens)
Sequence (P49336 whole entry): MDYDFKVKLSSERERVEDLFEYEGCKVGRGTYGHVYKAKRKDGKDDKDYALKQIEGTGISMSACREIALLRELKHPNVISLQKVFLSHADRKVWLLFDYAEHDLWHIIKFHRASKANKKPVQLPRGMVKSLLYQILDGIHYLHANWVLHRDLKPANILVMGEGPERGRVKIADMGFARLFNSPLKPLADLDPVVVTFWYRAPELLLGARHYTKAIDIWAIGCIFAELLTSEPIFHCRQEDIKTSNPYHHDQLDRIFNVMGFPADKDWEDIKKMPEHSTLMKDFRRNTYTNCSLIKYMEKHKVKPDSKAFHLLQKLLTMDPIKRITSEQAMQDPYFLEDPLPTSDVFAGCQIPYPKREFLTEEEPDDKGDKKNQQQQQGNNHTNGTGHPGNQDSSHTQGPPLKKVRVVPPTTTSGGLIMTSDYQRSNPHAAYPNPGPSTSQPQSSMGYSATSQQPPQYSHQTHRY
Sequence (P24863 whole entry partner): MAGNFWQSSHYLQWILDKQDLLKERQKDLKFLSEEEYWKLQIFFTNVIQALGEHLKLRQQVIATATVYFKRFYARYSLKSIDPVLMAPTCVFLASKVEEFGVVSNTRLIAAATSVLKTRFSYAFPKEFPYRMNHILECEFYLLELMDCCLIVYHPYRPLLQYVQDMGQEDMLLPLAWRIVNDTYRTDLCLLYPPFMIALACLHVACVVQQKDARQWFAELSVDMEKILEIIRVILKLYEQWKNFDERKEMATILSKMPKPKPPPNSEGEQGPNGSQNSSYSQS
Test: NanoBRET live-cell target engagement, NanoLuc-CDK8/Cyclin C in HEK-293
Assay type: binding
Settings: CDK8/C; 10µM
// note: answer is a bare numeric in %

These recorded examples may help you get a feel for the data.
CC(C)c1cnn2c(NCc3ccccc3)cc(N[C@@H](CO)[C@H](O)CO)nc12	22.4
O=C(Nc1c[nH]nc1-c1ccccn1)c1nn(C2CCNCC2)cc1Cl	-10.6
CNC1CCN(C(=O)c2ccc(Nc3ncc(F)c(-c4cnc(C)n4C(C)C)n3)cc2)C1 (stereo not shown)	98.8

Now look at this one.
**Query** Find the recorded Inhibition at 10µM (%) Replicate 2 belonging to CCC(CO)Nc1nc(Nc2cccc(-c3ccccn3)c2)c2ncn(C(C)C)c2n1.Cl.O [(R) - DRF053] and report it.
**Result** -1.1

* * *

Target: CDK16/Cyclin Y (Homo sapiens)
Sequence (Q00536 whole entry): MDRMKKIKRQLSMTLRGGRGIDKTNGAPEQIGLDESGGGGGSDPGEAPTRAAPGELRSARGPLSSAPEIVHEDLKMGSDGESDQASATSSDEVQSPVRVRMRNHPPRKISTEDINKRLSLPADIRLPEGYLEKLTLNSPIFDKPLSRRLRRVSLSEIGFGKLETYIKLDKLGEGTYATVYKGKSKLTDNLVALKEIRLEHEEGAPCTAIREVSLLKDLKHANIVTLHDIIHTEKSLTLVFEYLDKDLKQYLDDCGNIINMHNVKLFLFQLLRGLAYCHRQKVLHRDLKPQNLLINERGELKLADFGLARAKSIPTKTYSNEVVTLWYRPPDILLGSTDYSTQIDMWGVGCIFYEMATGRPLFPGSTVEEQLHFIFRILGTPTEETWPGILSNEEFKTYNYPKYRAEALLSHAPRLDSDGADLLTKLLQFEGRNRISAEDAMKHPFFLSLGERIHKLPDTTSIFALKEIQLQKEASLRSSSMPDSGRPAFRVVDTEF
Sequence (Q8ND76 whole entry partner): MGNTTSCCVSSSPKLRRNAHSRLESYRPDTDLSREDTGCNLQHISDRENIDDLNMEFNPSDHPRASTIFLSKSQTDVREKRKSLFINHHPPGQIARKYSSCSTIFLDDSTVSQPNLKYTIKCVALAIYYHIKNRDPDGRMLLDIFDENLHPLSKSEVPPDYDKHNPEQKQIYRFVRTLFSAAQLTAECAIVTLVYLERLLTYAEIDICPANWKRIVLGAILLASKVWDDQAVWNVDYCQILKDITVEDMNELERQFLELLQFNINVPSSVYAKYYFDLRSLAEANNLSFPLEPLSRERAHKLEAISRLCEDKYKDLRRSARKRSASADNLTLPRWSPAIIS
Assay: NanoBRET live-cell target engagement, CDK16-NanoLuc/Cyclin Y in HEK-293
Assay type: binding
Details: CDK16/Y; average (± SEM where n=3); read-out: IC50
Label fulfilled when IC50 < 0.1 µM; otherwise not fulfilled.

Study these solved cases before continuing.
CNc1nc(C)c(-c2nc(Nc3cccc(S(N)(=O)=O)c3)ncc2F)s1 [CDKI-73]	fulfilled
CN1CCN(Cc2ccc(NC(=O)Nc3ccc(Oc4ccnc(N)n4)cc3)cc2C(F)(F)F)CC1 [K03861]	not fulfilled
CNC(=O)c1nn(C)c2c1C(C)(C)Cc1cnc(Nc3ccc(N4CCN(C)CC4)cc3)nc1-2 [Milciclib]	not fulfilled
CC(C)c1cnn2c(NCc3ccccc3-n3cccn3)nc(OC3CCCNC3)nc12 (stereo not drawn) [LDC4297]	not fulfilled
CC(C)c1c2cc(-c3ccnc(N[C@H]4CC[C@H](NC5CCOCC5)CC4)n3)ccc2nn1C [LY2857785]	not fulfilled

**Query** A record lists CN1CCN(c2ccc(Nc3ncc4cc(C#N)c(=O)n(C5CCCC5)c4n3)cc2)CC1 [ON123300] . Is its IC50 below 0.1 µM?
**Result** fulfilled

**Query** And N#CCNC(=O)c1ccc(-c2ccnc(Nc3ccc(N4CCOCC4)cc3)n2)cc1 [Momelotinib] ?
**Result** not fulfilled

**Query** What do we get for CS(=O)(=O)N1CCC(NC(=O)c2[nH]ncc2NC(=O)c2c(Cl)cccc2Cl)CC1 [NVP-LCQ195] ?
**Result** fulfilled
